- assay: sensitization of CA1 pyramidal neurons by 2 to depolarizations by L-AP4, L-AP5 and L-AP6 before exposure to quisqualic acid
- Type: functional, cell-based, Rattus norvegicus
- condition context: pyramidal neuron
pIC50 by entry:
Please report pIC50 as the negative decimal logarithm of the molar concentration, giving only the number.

> print(dat)
                                   compound  numeric.readout
1                N[C@@H](CCP(=O)(O)O)C(=O)O             2.82
2  NC(CCCP(=O)(O)O)C(=O)O (stereo not drawn)             2.64

Look up pIC50: NC(CCCCP(=O)(O)O)C(=O)O (stereo not drawn)
1.96

---

IC50 by entry:
- assay: Ability to directly depolarize CA1 pyramidal neurons of rat hyppocampal slices before exposure to quisqualic acid
- Type: functional, cell-based
- condition context: pyramidal neuron
Give just the number in µM; leave the unit off.

Solved entries (count: 2):
> print(dat)
                                item.smiles  measured.endpoint  value.units  numeric.readout
1  O=C(O)[C@@H]1C[C@@H](n2oc(=O)[nH]c2=O)CN1               IC50           µM             1000
2                       NCCn1oc(=O)[nH]c1=O               IC50           µM             5400

Now for the compound whose IC50 we want.
Look up IC50: O=C(O)[C@@H]1C[C@H](n2oc(=O)[nH]c2=O)CN1
15

---

- assay: Ability to directly depolarize CA1 pyramidal neurons of rat hyppocampal slices after reversal with L-alpha-AA
- Format: functional, cell-based
- condition context: pyramidal neuron
measured endpoint: IC50 (mM)
Give just the number in mM; leave the unit off.

Look up IC50: O=C(O)[C@@H]1C[C@@H](n2oc(=O)[nH]c2=O)CN1
1.1

---

- assay: Ability to directly depolarize CA1 pyramidal neurons of rat hyppocampal slices after exposure to quisqualic acid
- Type: functional, cell-based
- condition context: pyramidal neuron
measured endpoint: IC50 (µM)
Give just the number in µM; leave the unit off.

Solved entries (count: 2):
> print(dat)
                                item.smiles  value.units  numeric.readout
1  O=C(O)[C@@H]1C[C@H](n2oc(=O)[nH]c2=O)CN1           µM               14
2  O=C(O)[C@@H]1C[C@@H](n2oc(=O)[nH]c2=O)CN1           µM              530

Now for the compound whose IC50 we want.
Look up IC50: NCCn1oc(=O)[nH]c1=O
3800
